Molecular target: Bile acid receptor (Homo sapiens)
Sequence (Q96RI1 whole entry): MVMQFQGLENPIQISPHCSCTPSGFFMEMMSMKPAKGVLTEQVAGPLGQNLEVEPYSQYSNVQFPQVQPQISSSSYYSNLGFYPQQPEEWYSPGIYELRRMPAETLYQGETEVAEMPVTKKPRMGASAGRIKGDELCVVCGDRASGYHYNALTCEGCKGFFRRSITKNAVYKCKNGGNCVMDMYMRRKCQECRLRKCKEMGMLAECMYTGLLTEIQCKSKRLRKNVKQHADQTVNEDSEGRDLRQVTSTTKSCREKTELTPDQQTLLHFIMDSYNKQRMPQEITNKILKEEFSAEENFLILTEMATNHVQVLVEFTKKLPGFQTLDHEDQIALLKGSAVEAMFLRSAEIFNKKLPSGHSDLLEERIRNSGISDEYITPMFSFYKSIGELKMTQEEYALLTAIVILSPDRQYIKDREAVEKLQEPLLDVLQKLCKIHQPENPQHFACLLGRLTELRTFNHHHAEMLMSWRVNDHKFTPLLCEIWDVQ
Assay: FXR Reporter Assay kit purchased from Indigo Bioscience (Catalogue number: IB00601) to determine the potency and efficacy of compound developed by Enanta that can induce FXR activation. The principle application of this reporter assay system is to quantify functional activity of human FXR. The assay utilizes non-human mammalian cells, CHO (Chinese hamster ovary) cells engineered to express human NR1H4 protein (referred to as FXR). Reporter cells also incorporate the cDNA encoding beetle luciferase which catalyzes the substrates and yields photon emission. Luminescence intensity of the reaction is quantified using a plate-reading luminometer, Envision. Reporter Cells include the luciferase reporter gene functionally linked to an FXR responsive promoter. Thus, quantifying changes in luciferase expression in the treated reporter cells provides a sensitive surrogate measure of the changes in FXR activity. […] The assay is according to the manufacturer's instructions. In brief, the assay was performed in white, 96 well plates using final volume of 100 μl containing cells with different doses of compounds. Retrieve Reporter Cells from −80° C. storage. Perform a rapid thaw of the frozen cells by transferring a 10 ml volume of 37° C. cell recovery medium into the tube of frozen cells. Recap the tube of Reporter Cells and immediately place it in a 37° C. water bath for 5-10 minutes. Retrieve the tube of Reporter Cell Suspension from the water bath. Sanitize the outside surface of the tube with a 70% alcohol swab, and then transfer it into the cell culture hood. Dispense 90 μl of cell suspension into each well of the 96-well Assay Plate. Transfer the plate into 37° C. incubator, allowing the cells adherent to the bottom of the well. Dilute compounds in Dilution Plate (DP), and administrate to cells at Assay Plate (AP). DMSO content of the samples was kept at 0.2%. Cells were incubated for additional 22 hours before luciferase activities were measured. Thirty minutes before intending to quantify FXR activity, remove Detection Substrate and Detection Buffer from the refrigerator and place them in a low-light area so that they may equilibrate to room temperature. Remove the plate's lid and discard all media contents by ejecting it into an appropriate waste container. Gently tap the inverted plate onto a clean absorbent paper towel to remove residual droplets. Cells will remain tightly adhered to well bottoms. Add 100 μl of luciferase detection reagent to each well of the assay plate. Allow the assay plate to rest at room temperature for at least 5 minutes following the addition of LDR. […] Read time may be 0.5 second (500 mSec) per well.
READOUT_KIND: EC50

ENTRY_SMILES	RECORDED_VALUE
CN(Cc1ccc(C(=O)NS(=O)(=O)N(C)C)cc1)c1ccc(OCc2c(-c3c(Cl)cccc3Cl)noc2C2CC2)nc1C(F)(F)F	< 100 nM
